# testedTarget: T1, biotinylated IL-22 with an N-terminal His/FLAG tag (bio.IL-22H/F) (human, UniProt Q9GZX6 34-179, biotinylated (site not stated))
# T1 construct: not shown: N-terminal His/FLAG tag
# T1 sequence: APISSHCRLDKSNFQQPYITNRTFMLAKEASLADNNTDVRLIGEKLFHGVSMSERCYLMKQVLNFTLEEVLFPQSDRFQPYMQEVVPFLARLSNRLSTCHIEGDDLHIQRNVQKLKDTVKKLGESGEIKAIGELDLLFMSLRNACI
# procedureDetails: IL-22 receptor complex inhibition assay (bio.IL-22H/F binding to IL-22 receptor complex, DELFIA), IgG
readoutKind: IC50 (nM)
Write it as a number; the unit nM goes unstated.

binder	readoutKind	obsValue
GIL68 IgG (non-germlined parent) (antibody, V domains shown, Human IgG4 heavy chain constant domain; Cryptate labeled in the HTRF assay; also called cryptate labeled GIL68 IgG) VH: EVQLVQSGAEVKKPGASVKVSCQASGYTFSDYYIHWVRQTPGQGFEWMGWVNPDTGGTRYAQKFQGWVTMTRDMSNTTAYMELPRLRDDDTAVYYCARDLTGFDPFDIWGQGTLVTVSS VL: QSVLTQPPSVSVAPGKTATITCGGNNFRNKRVHWYQQRPGQAPVLVIYYDSDRPSGIPERFSGSRSGNTATLTISRVEAGDEADFYCQVWDSSTDRPLFGGGTKLTVLG	IC50	2

Task item: Recorded IC50 of GIL01 IgG (non-germlined parent) (antibody, V domains shown, Human IgG4 heavy chain constant domain) VH: EVQLVESGGGLVTPGGSLRLSCAASGFTFSDYYMSWIRQAPGRGLEWVSAISGSGGSTYYADSVKGRITISRDNAKNSLYLQMSSLRSEDTAVYYCARGLWVWDPLDYWGRGTLVTVSS VL: DIQMTQSPSTLSASIGDRVTITCRASEGIYHWLAWYQQKPGKAPKLLIYKASSLASGAPSRFSGSGSGTDFTLTISSLQPDDFATYYCQQYSNYPLTFGGGTKLEIKR , please.
Reply: 13

Reference source for all entries: patent US20070243589A1
